Measured Acceptor activity by item
# measured on: Xanthine dehydrogenase/oxidase (Bos taurus, UniProt P80457)
# Sequence (P80457 whole entry): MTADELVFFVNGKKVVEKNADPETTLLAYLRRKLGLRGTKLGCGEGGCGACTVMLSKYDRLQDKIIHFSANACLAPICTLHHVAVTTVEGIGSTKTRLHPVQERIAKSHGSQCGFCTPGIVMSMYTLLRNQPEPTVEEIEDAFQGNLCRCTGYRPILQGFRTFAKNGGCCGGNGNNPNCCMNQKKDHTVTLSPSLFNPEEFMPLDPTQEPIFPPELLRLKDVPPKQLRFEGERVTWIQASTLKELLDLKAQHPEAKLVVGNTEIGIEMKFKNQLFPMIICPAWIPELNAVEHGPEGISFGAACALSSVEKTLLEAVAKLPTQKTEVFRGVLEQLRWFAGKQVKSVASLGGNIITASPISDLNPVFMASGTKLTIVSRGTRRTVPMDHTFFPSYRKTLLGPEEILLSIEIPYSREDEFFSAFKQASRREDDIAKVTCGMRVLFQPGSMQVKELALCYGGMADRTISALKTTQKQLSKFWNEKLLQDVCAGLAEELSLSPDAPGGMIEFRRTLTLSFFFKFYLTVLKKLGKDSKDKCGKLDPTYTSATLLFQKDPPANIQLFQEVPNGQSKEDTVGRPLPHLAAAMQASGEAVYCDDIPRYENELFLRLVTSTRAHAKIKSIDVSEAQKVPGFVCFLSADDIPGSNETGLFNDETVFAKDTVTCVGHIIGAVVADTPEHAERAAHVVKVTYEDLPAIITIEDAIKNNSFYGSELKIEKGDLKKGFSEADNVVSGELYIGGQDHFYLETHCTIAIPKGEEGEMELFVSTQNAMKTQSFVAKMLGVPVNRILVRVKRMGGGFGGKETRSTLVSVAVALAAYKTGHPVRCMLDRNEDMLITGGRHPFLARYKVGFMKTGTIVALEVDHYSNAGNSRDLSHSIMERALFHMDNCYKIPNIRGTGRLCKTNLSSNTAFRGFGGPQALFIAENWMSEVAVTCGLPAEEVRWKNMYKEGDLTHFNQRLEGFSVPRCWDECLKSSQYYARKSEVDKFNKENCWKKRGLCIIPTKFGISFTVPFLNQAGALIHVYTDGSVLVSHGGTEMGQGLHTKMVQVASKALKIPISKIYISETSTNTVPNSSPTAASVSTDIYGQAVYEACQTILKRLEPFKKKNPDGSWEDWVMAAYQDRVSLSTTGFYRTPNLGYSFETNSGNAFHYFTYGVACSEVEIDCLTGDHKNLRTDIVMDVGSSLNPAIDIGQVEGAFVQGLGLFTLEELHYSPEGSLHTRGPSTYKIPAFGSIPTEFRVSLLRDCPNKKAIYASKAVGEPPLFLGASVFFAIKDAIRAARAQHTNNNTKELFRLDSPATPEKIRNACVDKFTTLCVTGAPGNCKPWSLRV
# procedure summary: Electron acceptor activity on bovine milk xanthine oxidase using xanthine as reducing substrate
# experimental parameters: cattle
Reply with just the number.

Input `COc1ccccc1/C=N/N=C(\N)NO` . Output Acceptor activity: 59.7

====

# measured on: Xanthine dehydrogenase/oxidase (Bos taurus, UniProt P80457)
# procedure summary: Electron acceptor activity on bovine milk xanthine oxidase using xanthine as reducing substrate
# experimental parameters: cattle
measurement name: Acceptor activity
Just the number, please, no unit attached.

Completed entries (count: 2):
N/C(=N\O)N/N=C/c1ccc(Cl)c([N+](=O)[O-])c1 ... 42.1
N/C(=N\O)N/N=C/c1ccc(O)c(O)c1O ... 40.5

So, `N=C(NO)N/N=C/c1cc(O)ccc1[N+](=O)[O-]` ? Its Acceptor activity was 31.5

Per the record, `N=C(NO)N/N=C/c1cccc(O)c1O` has Acceptor activity of 43.7

Lab note: `COc1cc([N+](=O)[O-])cc(/C=N/NC(=N)NO)c1OC` gave Acceptor activity of 0.8

# Acceptor activity of `CN(C)c1ccc(/C=N/NC(=N)NO)cc1` = 41

====

Overview of reported Acceptor activity across a group of compounds:
# measured on: Xanthine dehydrogenase/oxidase (Bos taurus, UniProt P80457)
# procedure summary: Electron acceptor activity on bovine milk xanthine oxidase using xanthine as reducing substrate
# experimental parameters: cattle
Reply with just the number.

N=C(NO)N/N=C/c1ccc([N+](=O)[O-])cc1[N+](=O)[O-] ... 295.7

Entry `COc1cc(/C=N/N=C(\N)NO)cc(OC)c1OC` , Acceptor activity reported as 54.6

The reported value for `COc1cc([N+](=O)[O-])c(/C=N/NC(=N)NO)c(Cl)c1OC` in terms of Acceptor activity is 48.8

// Acceptor activity value for `N=C(NO)N/N=C/c1ccc(O)cc1` : 64.2

Acceptor activity reported for this compound `COc1cccc(/C=N/NC(=N)NO)c1O` : 45.5

Value of Acceptor activity reported for the compound `N=C(NO)N/N=C/c1ccc([N+](=O)[O-])cc1` is 94.2

Form field Acceptor activity, entry `COc1cc(O)c(/C=N/N=C(\N)NO)c(OC)c1` : 101.7

Summary for this compound, `N=C(NO)N/N=C/c1ccc(Br)cc1` : Acceptor activity is 82.1

The compound listed as `N=C(NO)N/N=C/c1c(Cl)ccc([N+](=O)[O-])c1[N+](=O)[O-]` shows Acceptor activity equal to 216.3

response.value for `CCN(CC)c1ccc(/C=N/NC(=N)NO)cc1` (field: Acceptor activity) = 62.1

The compound listed as `COc1cc(OC)c(OC)cc1/C=N/N=C(\N)NO` shows Acceptor activity equal to 29.7

Reported Acceptor activity ( `COc1ccc([N+](=O)[O-])c(/C=N/NC(=N)NO)c1OC` ) = 22

====

# measured on: Xanthine dehydrogenase/oxidase (Bos taurus, UniProt P80457)
# procedure summary: Electron acceptor activity on bovine milk xanthine oxidase using xanthine as reducing substrate
# experimental parameters: cattle
# binning rule on Acceptor activity: interval 1 (below 40), interval 2 (40 to below 70), interval 3 (70 or more)

Observe how each entry below is paired with its result.
COc1cc(Br)cc(/C=N/NC(=N)NO)c1O ... interval 3
N=C(NO)N/N=C/c1c([N+](=O)[O-])cccc1[N+](=O)[O-] ... interval 3
N=C(NO)N/N=C/c1ccccc1F ... interval 2

// return the class label for `N/C(=N\O)N/N=C/c1cccc([N+](=O)[O-])c1`
interval 1

Sort `N=C(NO)N/N=C/c1cccc(Cl)c1` into one of the categories.
interval 2

Category lookup for the compound `N=C(NO)N/N=C/c1cccc2c1OCO2`
interval 2

State the class of the compound shown: `COc1ccc(/C=N/NC(=N)NO)c(Cl)c1OC`
interval 3

Consider `COc1cc(OC)c(/C=N/N=C(\N)NO)c(OC)c1` . To which Acceptor activity class does it belong?
interval 1

Category of `COc1ccc(/C=N/NC(=N)NO)cc1Br` :
interval 1

Band assignment needed for `N/C(=N\O)N/N=C/c1ccccc1O` please.
interval 1

====

# measured on: Xanthine dehydrogenase/oxidase (Bos taurus, UniProt P80457)
# procedure summary: Electron acceptor activity on bovine milk xanthine oxidase using xanthine as reducing substrate
# experimental parameters: cattle
measurement name: Acceptor activity
No unit in the answer, please; the number alone is enough.

Illustrative cases are given below, each with its answer.
COc1ccc(/C=N/NC(=N)NO)cc1 ... 50.9
COc1cc([N+](=O)[O-])c([N+](=O)[O-])c(/C=N/NC(=N)NO)c1OC ... 52.9
COc1ccc(OC)c(/C=N/N=C(\N)NO)c1 ... 42.3
COc1ccc(OC)c([N+](=O)[O-])c1/C=N/NC(=N)NO ... 47.3

Let us examine a further case.
The reported Acceptor activity of the compound `COc1cccc(/C=N/NC(=N)NO)c1` was 55

====

# measured on: Xanthine dehydrogenase/oxidase (Bos taurus)
# procedure summary: Electron acceptor activity on bovine milk xanthine oxidase using xanthine as reducing substrate
# experimental parameters: cattle
Note to self: values exactly at 60 are 1. So Acceptor activity at or above 60 is 1, below is 0.

N=C(NO)N/N=C/c1c(Cl)ccc(Cl)c1[N+](=O)[O-] ... 1
N/C(=N\O)N/N=C/c1cccc(F)c1 ... 0
N=C(NO)N/N=C/c1ccccc1[N+](=O)[O-] ... 0
COc1cc(/C=N/NC(=N)NO)cc(OC)c1 ... 0
COc1ccc(/C=N/N=C(\N)NO)c(OC)c1OC ... 1

Could you tell me if the measured Acceptor activity of `N=C(NO)N/N=C/c1c(Cl)cccc1[N+](=O)[O-]` reaches 60 or more?
0

Check this compound for Acceptor activity at or above 60: `N=C(NO)N/N=C/c1ccc(O)cc1O`
1

====

Reported Acceptor activity values follow for various molecules
# measured on: Xanthine dehydrogenase/oxidase (Bos taurus)
# procedure summary: Electron acceptor activity on bovine milk xanthine oxidase using xanthine as reducing substrate
# experimental parameters: cattle

Recorded results for 5 molecules are shown here.
COc1ccc(/C=N/NC(=N)NO)cc1O ... 68.9
N=C(NO)N/N=C/c1ccccc1Br ... 72.9
COc1cc(OC)c(/C=N/NC(=N)NO)cc1Br ... 16.3
N=C(NO)N/N=C/c1ccc(Br)c([N+](=O)[O-])c1 ... 35
N=C(NO)N/N=C/c1ccc(Cl)cc1 ... 57.9

Measured Acceptor activity, `N=C(NO)N/N=C/c1ccccc1Cl` : 90.2

Lab note: `COc1cccc(OC)c1/C=N/NC(=N)NO` gave Acceptor activity of 13.2

====

# measured on: Xanthine dehydrogenase/oxidase (Bos taurus)
# procedure summary: Electron acceptor activity on bovine milk xanthine oxidase using xanthine as reducing substrate
# experimental parameters: cattle
measurement name: Acceptor activity

N=C(NO)N/N=C/c1cc([N+](=O)[O-])ccc1O ... 25.8

Per the record, `COc1cc(/C=N/NC(=N)NO)c(Br)c(OC)c1OC` has Acceptor activity of 119.5

Lookup result for `N=C(NO)N/N=C/c1ccc(F)cc1` ; measured Acceptor activity: 43.2
